Target: ROCK2 (Homo sapiens)
pIC50: −log10 of the molar value. Structures can show the parent of a compound that is named as a salt.
pIC50 values, listed per item
Quantity measured: pIC50

compound="O=C(CCc1ccccc1)NC1CC2(C1)CC(c1n[nH]c(=O)c3ccccc13)C2 (stereo not shown)" quantity_measured=pIC50 value_observed="5.68 to 7.00"
compound="O=C(N[C@H]1CC2(C1)C[C@H](c1n[nH]c(=O)c3ccccc31)C2)c1cnn2cc(-n3cccn3)ccc12 (stereo partly shown)" quantity_measured=pIC50 value_observed="8.70 to 9.70"
compound="O=C(NC1CC2(C1)CC(c1n[nH]c(=O)c3ccccc13)C2)c1cnn2c(C(F)(F)F)c(OCc3ccccc3)ccc12 (stereo not shown)" quantity_measured=pIC50 value_observed="7.82 to 8.29"
compound="Cc1c(OCC(C)(C)O)ccc2c(C(=O)NC3CC4(C3)CC(c3n[nH]c(=O)c5ccccc35)C4)cnn12 (stereo not shown)" quantity_measured=pIC50 value_observed="8.30 to 8.70"
compound="O=C(NC1CC2(C1)CC(c1n[nH]c(=O)c3ccccc13)C2)c1cnc2[nH]cnc2c1 (stereo not shown)" quantity_measured=pIC50 value_observed="7.00 to 7.82"
compound="Cc1nn(CC(F)F)cc1C(=O)NC1CC2(C1)CC(c1n[nH]c(=O)c3ccccc13)C2 (stereo not shown)" quantity_measured=pIC50 value_observed="8.30 to 8.70"
compound="[H][C@]1(c2n[nH]c(=O)c3ccccc32)C[C@]2(C[C@@H](NC(=O)c3cnc4cc(OC5CCC(F)(F)CC5)ccn34)C2)C1 (stereo partly shown) [Example 471, TFA]" quantity_measured=pIC50 value_observed="8.30 to 8.70"

====

# collection of IC50 values tested on ROCK2 (Homo sapiens, UniProt O75116)
# Sequence (O75116 whole entry, species assumed): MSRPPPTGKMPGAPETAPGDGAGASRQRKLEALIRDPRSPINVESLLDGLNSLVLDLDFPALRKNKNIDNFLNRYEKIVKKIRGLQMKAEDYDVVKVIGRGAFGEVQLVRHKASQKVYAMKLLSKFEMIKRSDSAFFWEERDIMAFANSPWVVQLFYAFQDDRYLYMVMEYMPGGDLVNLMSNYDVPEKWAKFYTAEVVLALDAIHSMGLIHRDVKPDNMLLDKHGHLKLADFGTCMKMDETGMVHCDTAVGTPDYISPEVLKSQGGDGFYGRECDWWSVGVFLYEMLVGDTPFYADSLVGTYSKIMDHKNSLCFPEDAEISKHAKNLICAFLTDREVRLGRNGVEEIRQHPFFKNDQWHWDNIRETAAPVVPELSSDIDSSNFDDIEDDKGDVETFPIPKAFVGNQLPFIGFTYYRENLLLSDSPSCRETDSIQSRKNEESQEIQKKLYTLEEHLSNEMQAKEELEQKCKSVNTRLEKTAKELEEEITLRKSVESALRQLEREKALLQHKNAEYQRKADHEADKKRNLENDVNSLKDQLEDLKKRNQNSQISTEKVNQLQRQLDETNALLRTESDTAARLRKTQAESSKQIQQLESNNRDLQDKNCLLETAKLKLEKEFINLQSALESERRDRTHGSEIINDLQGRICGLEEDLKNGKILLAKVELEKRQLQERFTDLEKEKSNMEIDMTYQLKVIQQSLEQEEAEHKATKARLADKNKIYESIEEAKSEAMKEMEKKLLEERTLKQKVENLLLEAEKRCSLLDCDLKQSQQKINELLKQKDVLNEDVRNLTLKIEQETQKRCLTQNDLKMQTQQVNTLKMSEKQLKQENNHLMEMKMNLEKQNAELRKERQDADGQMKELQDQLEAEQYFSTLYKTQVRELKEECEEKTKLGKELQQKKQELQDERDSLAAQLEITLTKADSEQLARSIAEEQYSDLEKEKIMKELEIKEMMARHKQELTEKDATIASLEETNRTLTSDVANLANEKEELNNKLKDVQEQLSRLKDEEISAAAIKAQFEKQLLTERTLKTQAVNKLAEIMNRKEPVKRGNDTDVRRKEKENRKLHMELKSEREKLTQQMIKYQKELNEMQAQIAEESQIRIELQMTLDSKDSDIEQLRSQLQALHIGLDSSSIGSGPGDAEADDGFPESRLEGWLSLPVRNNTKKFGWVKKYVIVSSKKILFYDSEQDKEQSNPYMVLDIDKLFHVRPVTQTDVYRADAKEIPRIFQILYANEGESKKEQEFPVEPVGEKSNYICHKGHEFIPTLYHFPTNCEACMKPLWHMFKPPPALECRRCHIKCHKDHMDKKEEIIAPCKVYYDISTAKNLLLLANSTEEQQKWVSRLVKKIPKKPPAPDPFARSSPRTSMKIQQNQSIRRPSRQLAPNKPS
Quantity measured: IC50

compound="[H][C@]1(c2n[nH]c(=O)c3ccccc32)C[C@]2(C[C@@H](NC(=O)c3cc4n(n3)CCNC4=O)C2)C1 (stereo partly shown)" measured_target="ROCK2 (Homo sapiens, UniProt O75116)" quantity_measured=IC50 value_observed="100 to 2100 nM"
compound="Cc1nc(N2CCC(F)C2)sc1C(=O)NC1CC2(C1)CC(c1n[nH]c(=O)c3ccccc13)C2 (stereo not shown)" measured_target="ROCK2 (Homo sapiens, UniProt O75116)" quantity_measured=IC50 value_observed="2.01 to 5 nM"
compound="[H][C@]1(c2n[nH]c(=O)c3ccccc32)C[C@]2(C[C@@H](NC(=O)c3cc4cccc(O)c4[nH]3)C2)C1 (stereo partly shown)" measured_target="ROCK2 (Homo sapiens, UniProt O75116)" quantity_measured=IC50 value_observed="2.01 to 5 nM"
compound="O=C(NC1CC2(C1)CC(c1n[nH]c(=O)c3ccccc13)C2)c1cnn2cc(CCCN3CCC(F)(F)C3)ccc12 (stereo not shown)" measured_target="ROCK2 (Homo sapiens, UniProt O75116)" quantity_measured=IC50 value_observed="0.2 to 2 nM"

====

Counter-ions that a name gives are not always drawn.
ROCK2 (Homo sapiens): recorded IC50 for assorted compounds
Quantity measured: IC50

compound="O=C(NC1CC2(C1)CC(c1n[nH]c(=O)c3ccccc13)C2)c1noc2ccccc12 (stereo not drawn)" quantity_measured=IC50 value_observed="5.1 to 15 nM"
compound="O=C(NC1CC2(C1)CC(c1n[nH]c(=O)c3ccccc13)C2)c1cnn2cc(COCC3CCOCC3)ccc12 (stereo not drawn)" quantity_measured=IC50 value_observed="2.01 to 5 nM"
compound="[H][C@]1(c2n[nH]c(=O)c3ccccc32)C[C@]2(C[C@@H](NC(=O)c3cccc(OC(F)F)c3)C2)C1 (stereo partly drawn)" quantity_measured=IC50 value_observed="5.1 to 15 nM"
compound="Cc1nc(N2CCCCC2)sc1C(=O)N[C@H]1CC2(C1)C[C@H](c1n[nH]c(=O)c3ccccc31)C2 (stereo partly drawn)" quantity_measured=IC50 value_observed="0.2 to 2 nM"
compound="CC(C)n1cc(-c2ccc3c(C(=O)NC4CC5(C4)CC(c4n[nH]c(=O)c6ccccc46)C5)cnn3c2)cn1 (stereo not drawn)" quantity_measured=IC50 value_observed="0.2 to 2 nM"
compound="O=C(N[C@H]1CC2(C1)C[C@H](c1n[nH]c(=O)c3ccccc31)C2)c1cnn2cc(OC[C@@H](O)C(F)(F)F)ccc12 (stereo partly drawn) [Example 120]" quantity_measured=IC50 value_observed="0.2 to 2 nM"
compound="O=C(N[C@H]1CC2(C1)C[C@H](c1n[nH]c(=O)c3ccccc31)C2)c1cnn2cc(CO)ccc12 (stereo partly drawn)" quantity_measured=IC50 value_observed="5.1 to 15 nM"
compound="CC(C)(O)Cn1nc(C(=O)N[C@H]2CC3(C2)C[C@H](c2n[nH]c(=O)c4ccccc42)C3)c2ccc(Br)cc21 (stereo partly drawn)" quantity_measured=IC50 value_observed="2.01 to 5 nM"
compound="O=C(N[C@H]1CC2(C1)C[C@H](c1n[nH]c(=O)c3ccccc31)C2)c1cnn2cc(CCC(O)(C(F)(F)F)C(F)(F)F)ccc12 (stereo partly drawn)" quantity_measured=IC50 value_observed="2.01 to 5 nM"
compound="O=C(N[C@H]1CC2(C1)C[C@H](c1n[nH]c(=O)c3ccccc31)C2)N1CCc2cc(Br)ccc21 (stereo partly drawn)" quantity_measured=IC50 value_observed="2.01 to 5 nM"
compound="COc1ccc2c(c1)c(C(=O)NC1CC3(C1)CC(c1n[nH]c(=O)c4ccccc14)C3)nn2CC(C)(C)O (stereo not drawn)" quantity_measured=IC50 value_observed="2.01 to 5 nM"
compound="[H][C@]1(c2n[nH]c(=O)c3ccccc32)C[C@]2(C[C@@H](NC(=O)c3ccc(-n4cncn4)cc3)C2)C1 (stereo partly drawn)" quantity_measured=IC50 value_observed="15.1 to 100 nM"
compound="O=C(NC1CC2(C1)CC(c1n[nH]c(=O)c3ccccc13)C2)c1cnc(N2CCOCC2)s1 (stereo not drawn)" quantity_measured=IC50 value_observed="2.01 to 5 nM"
compound="[H][C@]1(c2n[nH]c(=O)c3ccccc32)C[C@]2(C[C@@H](NC(=O)c3cnc4cc(Oc5ccccn5)ccn34)C2)C1 (stereo partly drawn)" quantity_measured=IC50 value_observed="0.2 to 2 nM"
compound="CCn1cc(-c2ccn3c(C(=O)N[C@H]4CC5(C4)C[C@H](c4n[nH]c(=O)c6ccccc64)C5)cnc3c2)cn1 (stereo partly drawn) [Example 439, TFA salt]" quantity_measured=IC50 value_observed="0.2 to 2 nM"
compound="O=C(N[C@H]1CC2(C1)C[C@H](c1n[nH]c(=O)c3ccccc31)C2)c1cnn2cc(O[C@@H]3CCOC3)ccc12 (stereo partly drawn) [Example 122]" quantity_measured=IC50 value_observed="0.2 to 2 nM"
compound="[H][C@]1(c2n[nH]c(=O)c3ccccc32)C[C@]2(C[C@@H](NC(=O)c3cn(CC(C)(C)O)c4cc(=O)ccn34)C2)C1 (stereo partly drawn)" quantity_measured=IC50 value_observed="100 to 2100 nM"
compound="CN(C)Cc1c(OCc2ccccc2)ccc2c(C(=O)NC3CC4(C3)CC(c3n[nH]c(=O)c5ccccc35)C4)cnn12 (stereo not drawn)" quantity_measured=IC50 value_observed="5.1 to 15 nM"
compound="Cn1cc(-c2ccc3c(C(=O)NC4CC5(C4)CC(c4n[nH]c(=O)c6ccccc46)C5)nn(CC(C)(C)O)c3c2)cn1 (stereo not drawn)" quantity_measured=IC50 value_observed="2.01 to 5 nM"
compound="[H][C@]1(c2n[nH]c(=O)c3ccccc32)C[C@]2(C[C@@H](NC(=O)c3cnc4cc(OCCN5CCCC5)ccn34)C2)C1 (stereo partly drawn)" quantity_measured=IC50 value_observed="2.01 to 5 nM"
compound="Cc1ccn2c(=O)[nH]nc(C3CC4(CC(NC(=O)c5cnn6cc(OCC(C)(C)O)ccc56)C4)C3)c12 (stereo not drawn) [Example 281, TFA]" quantity_measured=IC50 value_observed="5.1 to 15 nM"
compound="[H][C@]1(c2n[nH]c(=O)c3ccccc32)C[C@]2(C[C@@H](NC(=O)c3cnn4cc(OCC(C)(C)OC(=O)[C@@H](N)C(C)C)ccc34)C2)C1 (stereo partly drawn) [Example 269, TFA]" quantity_measured=IC50 value_observed="0.2 to 2 nM"
compound="O=C(NC1CC2(C1)CC(c1n[nH]c(=O)c3ccccc13)C2)c1onc2ccccc12 (stereo not drawn)" quantity_measured=IC50 value_observed="5.1 to 15 nM"
compound="CC1(C)CN(CCOc2ccc3c(C(=O)NC4CC5(C4)CC(c4n[nH]c(=O)c6ccccc46)C5)cnn3c2)CCC1O (stereo not drawn)" quantity_measured=IC50 value_observed="0.2 to 2 nM"
compound="[H][C@]1(c2n[nH]c(=O)c3ccccc32)C[C@]2(C[C@@H](NC(=O)c3cnc4cc(OCCN5CCOCC5)ccn34)C2)C1 (stereo partly drawn)" quantity_measured=IC50 value_observed="0.2 to 2 nM"
compound="O=C(NC1CC2(C1)CC(c1n[nH]c(=O)c3ccccc13)C2)c1cnn(Cc2ccccc2)c1 (stereo not drawn)" quantity_measured=IC50 value_observed="2.01 to 5 nM"
compound="O=c1[nH]nc([C@H]2CC3(C[C@H](Nc4nncc5ccccc45)C3)C2)c2ccccc12 (stereo partly drawn)" quantity_measured=IC50 value_observed="5.1 to 15 nM"
